System: M14 melanoma
test summary: NCI tumour cell line growth inhibition, 48 h
Assignment: determine reported GI50 for the given compounds.

Record excerpt, results attached:
CN1CCN(CCCOc2cccc3nc(Nc4ccc(Cl)c(F)c4)ccc23)CC1 :: 1730 nM
Cc1cc2cccnc2c2ncccc12 :: 1260 nM
CN(Cc1cnc(N)nc1N)c1ccc(C(=O)O)cc1 :: > 100000 nM

// moving on: another record for GI50
Which GI50 value is on record for `CN(C)c1ccc2c(c1)CN1C(=O)c3ccccc3C1=N2` ?
> 100000 nM

----------
Assignment: determine reported TGI for the given compounds.
Tested on: SF-539 CNS
test summary: NCI tumour cell line growth inhibition, 48 h

Record excerpt, results attached:
COc1cc(=O)oc(/C=C/C=O)c1C :: 34.2 µM
CCOC(=O)c1cc(/C=C/C(C)=C/C(=O)OC)oc1-c1ccccc1 :: > 100 µM
O=C(Cc1nc2ccccc2c(=O)n1-c1c(Cl)cccc1Cl)c1ccncc1 :: 34.5 µM
O=C(CC(=O)C(=O)Nc1ccccc1)CC(c1ccccc1)c1c(O)c2ccccc2oc1=O (stereo unspecified) :: > 100 µM
CC1SC(c2ccccc2)N(Nc2c3ccccc3nc3ccccc23)C1=O (stereo unspecified) :: > 100 µM
CC12CCC([C@H](N3CCOCC3)/C1=N\OCCN1CCCC1)C2(C)C (stereo partly specified) :: > 100 µM
O=C(CCCn1c(=O)c2sc3ccccc3c2n2nnc(-c3ccccc3)c12)NCCc1cnc[nH]1 :: 2.19 µM
CCOC(=O)C1=C(C)NC2SC(=O)/C(=C\c3ccccc3Cl)N2C1c1ccccc1 (stereo unspecified) :: > 100 µM

Record TGI for all entries; do not skip any.
1. COc1cccc(/C(CC(O)(C(F)(F)F)C(F)(F)F)=N\N(C)C)c1
2. CC1(C)OCC2(CO1)CSCCCSCC1(COC(C)(C)OC1)CSCCCSC2
3. COc1cc(O)c2c(=O)c(OC)c(-c3ccc4c(c3)OCO4)oc2c1
4. COc1cc([N+](=O)[O-])c(S(=O)(=O)O)cc1NS(=O)(=O)c1ccc(C)cc1
5. COc1ccc(C(C#N)NC23CC4CC(CC(C4)C2)C3)cc1OC (stereo unspecified)

["> 100 µM", "> 100 µM", "> 74.9 µM", "> 100 µM", "> 100 µM"]

Record TGI for all entries; do not skip any.
1. CN(C)/C(N)=N/C(N)=Nc1cccc(Cl)c1
2. C=C(C)[C@@H]1C[C@H]2O[C@](O)(C(=C)CC(=O)/C=C(/C)C[C@@H]3OC(=O)[C@]24O[C@@H]34)[C@H]1O
3. COc1ccc(-c2cc(-c3ccc(Cl)cc3)n(C3OC(CO)C(O)C(O)C3O)c(=S)c2C#N)cc1 (stereo unspecified)
4. c1cc(-c2csc(-c3ccsc3)c2)cs1
5. Cc1ccc(N/C(Sc2ccccc2)=C(/C(Cl)=C(Cl)Cl)[N+](=O)[O-])c(C)c1
6. C[C@]12CCC3c4ccc(O)cc4CC[C@H]3C1CC(=O)N(N)C2=O (stereo partly specified)
7. CC(C)(N)CO[C@H]1C[C@H]2CC[C@@]1(C)C2(C)C

1. > 100 µM
2. > 100 µM
3. > 100 µM
4. > 100 µM
5. 45.4 µM
6. > 100 µM
7. 41 µM

# query: TGI | item `O=C(CBr)N1CCC2(CC1)SSC1(CCN(C(=O)CBr)CC1)S2` | system: SF-539 CNS
3.09 µM
